ASSAY: Inhibition of GST-MDM2/His6-p53 interaction expressed in Escherichia coli after 1 hr by ELISA
pIC50: −log10 of the molar value.
In this section we review reported pIC50 values for a set of compounds.
MEASURED_QUANTITY: pIC50

CC(=O)N[C@@H](CCC(N)=O)C(=O)N[C@@H](CCC(=O)O)C(=O)N[C@H](C(=O)N[C@@H](Cc1ccccc1)C(=O)N[C@@H](CO)C(=O)N[C@@H](CC(=O)O)C(=O)N[C@@H](CC(C)C)C(=O)N[C@@H](Cc1c[nH]c2ccccc12)C(=O)N[C@@H](CCCCN)C(=O)N[C@@H](CC(C)C)C(=O)N[C@@H](CC(C)C)C(=O)N1CCC[C@H]1C(=O)O)[C@@H](C)O | 5.06
CCC(=O)N(CCNC(=O)[C@H](CC(C)C)N(CCNC(=O)[C@H](Cc1c[nH]c2ccccc12)N(CCNC(=O)[C@H](Cc1ccccc1)N(CCNC(=O)[C@H](C)N(CCN)C(=O)CC)C(=O)CC)C(=O)CCO)C(=O)CCc1ccccc1)[C@@H](C)C(N)=O | 3.92
CCC(=O)N(CCNC(=O)[C@H](CC(C)C)N(CCNC(=O)[C@H](Cc1c[nH]c2ccccc12)N(CCNC(=O)[C@H](Cc1ccccc1)N(CCN)C(=O)CC)C(=O)CCO)C(=O)CC)[C@@H](C)C(N)=O | 3.92
CCC(=O)N(CCNC(=O)[C@H](CC(C)C)N(CCNC(=O)[C@H](Cc1c[nH]c2ccccc12)N(CCNC(=O)[C@H](Cc1ccccc1)N(CCNC(=O)[C@H](C)N(CCN)C(=O)CC)C(=O)CC)C(=O)CCO)C(=O)CC)[C@@H](C)C(N)=O | 4.42

All figures here come from ChEMBL document CHEMBL1681656.
